- Measurement Protocol: BSK_4H_SRB: Viability Assessment in the BioMAP Diversity Plus: 4H Assay (AID 2283027);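 further: cells exposed to compound for 24 h before staining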
- Cond: primary human endothelial cells (HUVEC)
Activity calls are given as the source filed them. How the source made its calls: active means hit-call score of the fitted dose curve at least 0.9, where 1 is the maximum; inactive means score below 0.9.
Tick one outcome: active, inactive

Tell me the recorded outcome of this test for `Cc1ccc(S(=O)(=O)OCC(F)(F)C(F)(F)C(F)(F)C(F)(F)C(F)(F)C(F)F)cc1` .
inactive

Tell me the recorded outcome of this test for `O=C(O)C(F)(F)C(F)(F)F` .
inactive

Tell me the recorded outcome of this test for `CC(C)(C)C(=O)CC(=O)C(F)(F)C(F)(F)C(F)(F)F` .
inactive

Tell me the recorded outcome of this test for `CCc1ccc(C(c2ccc(CC)cc2)C(Cl)Cl)cc1` .
active

Tell me the recorded outcome of this test for O=C(O)C(F)(OC(F)(F)C(F)(OC(F)(F)C(F)(F)C(F)(F)F)C(F)(F)F)C(F)(F)F (stereo unspecified) .
inactive

Tell me the recorded outcome of this test for `O=C(O)C(F)(F)C(F)(F)OC(F)(F)F` .
inactive

---

- Measurement Protocol: BSK_SAg_PBMCCytotoxicity: PBMC Cytotoxicity Assessment in the BioMAP Diversity Plus: SAg Assay (AID 2283093);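 further: PBMC viability measured as Alamar Blue reduction fluorescence at 546/580 nm; fitted both ways against DMSO so a hit may be loss or gain of signal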
- Cond: primary human HUVEC with PBMC
Active and inactive are the calls of the source. How the source made its calls: active means hit-call score of the fitted dose curve at least 0.9, where 1 is the maximum; inactive means score below 0.9.
Tick one outcome: active, inactive

Tell me the recorded outcome of this test for `FC(F)(Br)C(F)(F)C(F)(F)C(F)(F)C(F)(F)C(F)(F)Br` .
inactive

Tell me the recorded outcome of this test for `FC(F)(F)C(F)(F)CNCC(F)(F)C(F)(F)F` .
inactive

Tell me the recorded outcome of this test for `OCC(F)(F)C(F)(F)C(F)(F)C(F)(F)C(F)(F)C(F)(F)F` .
inactive

Tell me the recorded outcome of this test for `C=CC(F)(F)C(F)(F)C(F)(F)C(F)(F)C(F)(F)C(F)(F)C(F)(F)C(F)(F)F` .
inactive

Tell me the recorded outcome of this test for `O=C(O)C=C(C(F)(F)F)C(F)(F)F` .
inactive

Tell me the recorded outcome of this test for `COC(=O)CCC(F)(F)C(F)(F)C(F)(F)C(F)(F)F` .
inactive

Tell me the recorded outcome of this test for `O=C(O)C(F)(F)C(F)(F)C(F)(F)F` .
inactive

Tell me the recorded outcome of this test for `C#C[C@]1(O)CC[C@H]2[C@@H]3CCc4cc(OC)ccc4[C@H]3CC[C@@]21C` .
active

---

- Measurement Protocol: BSK_3C_Proliferation: Cell Proliferation Assessment in the BioMAP Diversity Plus: 3C Assay (AID 2283006)
- Cond: primary human endothelial cells (HUVEC)
The source made the active and inactive calls. Rule for the calls: active = hit-call score of the fitted dose curve at least 0.9, where 1 is the maximum; inactive = score below 0.9.
Tick one outcome: active, inactive

Tell me the recorded outcome of this test for `CCCCCCCCCCCCCCCC[N+](C)(C)Cc1ccccc1` .
active

Tell me the recorded outcome of this test for `FC(F)(F)C(F)(F)C(F)(F)C(F)(F)CCI` .
inactive

Tell me the recorded outcome of this test for `O=C(O)C(F)(F)C(F)(F)C(F)F` .
inactive

Tell me the recorded outcome of this test for `FC(F)(F)C(F)(F)CNCC(F)(F)C(F)(F)F` .
inactive

Tell me the recorded outcome of this test for `FC(F)(F)C(F)(F)C(F)(F)C(F)(F)C(F)(F)C(F)(F)C(F)(F)C(F)(F)F` .
inactive

Tell me the recorded outcome of this test for `CCCCCCCCC(F)(F)C(F)(F)C(F)(F)C(F)(F)C(F)(F)C(F)(F)F` .
inactive

Tell me the recorded outcome of this test for `OCC(F)(F)C(F)(F)C(F)(F)C(F)(F)C(F)(F)C(F)F` .
inactive

Tell me the recorded outcome of this test for FC1CC(F)(F)C(F)(F)C1(F)F (configuration not stated) .
inactive

Tell me the recorded outcome of this test for `FC(F)(F)C(F)(F)C(F)(F)C(F)(F)C(F)(F)C(F)(F)C(F)(F)I` .
inactive

Tell me the recorded outcome of this test for `Oc1ccc(Nc2ccccc2)cc1` .
active

Tell me the recorded outcome of this test for `FC(F)(F)C(F)(F)C(F)(F)N(C(F)(F)C(F)(F)C(F)(F)F)C(F)(F)C(F)(F)C(F)(F)F` .
inactive

Tell me the recorded outcome of this test for `CCc1c(Br)c(Br)c(Br)c(Br)c1Br` .
inactive

Tell me the recorded outcome of this test for `C=CC(F)(F)C(F)(F)C(F)(F)C(F)(F)C(F)(F)C(F)(F)C(F)(F)C(F)(F)C=C` .
inactive

Tell me the recorded outcome of this test for `CC(=O)Nc1ccc(N=Nc2cc(C)ccc2O)cc1` .
active

Tell me the recorded outcome of this test for `O=C(O)C(F)(F)C(F)(F)C(F)(F)C(F)(F)F` .
inactive

Tell me the recorded outcome of this test for `O=C(CC(=O)C(F)(F)C(F)(F)F)C(F)(F)F` .
inactive

Tell me the recorded outcome of this test for `C=C(C)C(=O)OCC(F)(F)C(F)(F)C(F)(F)C(F)(F)C(F)(F)C(F)(F)C(F)(F)F` .
inactive

Tell me the recorded outcome of this test for O=C(O)C(F)(OC(F)(F)C(F)(OC(F)(F)C(F)(OC(F)(F)C(F)(F)C(F)(F)F)C(F)(F)F)C(F)(F)F)C(F)(F)F (configuration not stated) .
inactive

Tell me the recorded outcome of this test for CCCCCCC(C)OC(=O)CCCCC(=O)OC(C)CCCCCC (configuration not stated) .
inactive

Tell me the recorded outcome of this test for `FC(F)(F)C(F)(F)C(F)(F)C(F)(F)C(F)(F)C(F)(F)C(F)(F)Br` .
inactive

Tell me the recorded outcome of this test for `C=C(C)C(=O)OCCC(F)(F)C(F)(F)C(F)(F)C(F)(F)C(F)(C(F)(F)F)C(F)(F)F` .
inactive

Tell me the recorded outcome of this test for CCCCC(CC)COP(=O)(O)OCC(CC)CCCC (configuration not stated) .
active

---

- Measurement Protocol: BSK_hDFCGF_Proliferation: Cell Proliferation Assessment in the BioMAP Diversity Plus: hDFCGF Assay (AID 2283059);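 further: curves fitted for both rise and fall of signal versus DMSO baseline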
- Cond: primary human foreskin fibroblasts
Activity calls are given as the source filed them. How the source made its calls: active means hit-call score of the fitted dose curve at least 0.9, where 1 is the maximum; inactive means score below 0.9.
Observed Property: AC50

Below: 6 molecules and their reported AC50.
[
  {
    "Molecule": "O=C(O)C(F)(F)C(F)(F)F",
    "AC50": "inactive"
  },
  {
    "Molecule": "C=CC(F)(F)C(F)(F)C(F)(F)C(F)(F)C(F)(F)C(F)(F)C(F)(F)C(F)(F)C=C",
    "AC50": "inactive"
  },
  {
    "Molecule": "CO[Si](OC)(c1ccccc1)c1ccccc1",
    "AC50": "28.1 µM (active)"
  },
  {
    "Molecule": "FC(F)(F)C(F)(F)C(F)(F)CI",
    "AC50": "inactive"
  },
  {
    "Molecule": "FC(F)(F)C(F)(F)C(F)(F)C(F)(F)C(F)(F)C(F)(F)C(F)(F)C(F)(F)F",
    "AC50": "inactive"
  },
  {
    "Molecule": "CC(=O)Nc1ccc(N=Nc2cc(C)ccc2O)cc1",
    "AC50": "20 µM (active)"
  }
]

Name the recorded AC50 of the item FC1CC(F)(F)C(F)(F)C1(F)F (configuration not stated) in your answer.
inactive

---

- Measurement Protocol: BSK_4H_SRB: Viability Assessment in the BioMAP Diversity Plus: 4H Assay (AID 2283027);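 further: cells exposed to compound for 24 h before staining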
- Cond: primary human endothelial cells (HUVEC)
Calls of active or inactive are those of the source. The calls were made as follows: active = hit-call score of the fitted dose curve at least 0.9, where 1 is the maximum; inactive = score below 0.9.
Tick one outcome: active, inactive

Tell me the recorded outcome of this test for CCCCCCC(C)OC(=O)CCCCC(=O)OC(C)CCCCCC (configuration not stated) .
inactive

Tell me the recorded outcome of this test for `CCCCCCCCCCCCCCCC[N+](C)(C)Cc1ccccc1` .
active

Tell me the recorded outcome of this test for `C=CC(=O)OCC(F)(F)C(F)(F)C(F)(F)C(F)(F)C(F)(F)C(F)(F)C(F)(F)F` .
inactive

Tell me the recorded outcome of this test for `FC(F)(F)C(F)(F)C(F)(F)C(F)(F)C(F)(F)C(F)(F)C(F)(F)C(F)(F)CCS` .
inactive

Tell me the recorded outcome of this test for `CCCCCCCCC(F)(F)C(F)(F)C(F)(F)C(F)(F)C(F)(F)C(F)(F)F` .
inactive

Tell me the recorded outcome of this test for `O[Si](c1ccccc1)(c1ccccc1)c1ccccc1` .
active

Tell me the recorded outcome of this test for `O=C(O)C(F)(F)C(F)(F)C(F)(F)C(F)(F)F` .
inactive

Tell me the recorded outcome of this test for `CO[Si](OC)(c1ccccc1)c1ccccc1` .
inactive

Tell me the recorded outcome of this test for `O=C(O)C(F)(F)C(F)(F)C(F)F` .
inactive

Tell me the recorded outcome of this test for `OCCCC(F)(F)C(F)(F)C(F)(F)F` .
inactive

Tell me the recorded outcome of this test for `C=C(C)C(=O)OCC(F)(F)C(F)(F)C(F)(F)F` .
inactive

Tell me the recorded outcome of this test for `CCCCCCCOC(=O)c1ccccc1C(=O)OCCCCCCC` .
inactive
